- Test system: RPMI-8226 leukemia
- assay_protocol: NCI-60 one-dose screen, 48 h
- condition: 10 µM unless noted
About 83,000 compounds went through this panel and 20% of them were active in at least one assay; those are over-represented in the sample as a whole. The source made the active and inactive calls. The calls were made as follows: active = growth percent below 10; inactive = the rest.
Thanks in advance; please answer with one of these: 1.0 for active, 0.0 for inactive

Solved cases (2 shown):
O=C(Nc1ccc(-n2cc(-c3ccncc3)c(-c3ccc(O)c(Cl)c3)n2)cc1)Nc1ccc(Cl)c(C(F)(F)F)c1: 1.0
CCNc1cc(S(=O)(=O)O)ccc1C: 0.0

// next entry
Could you please tell me the result logged for `O=C(NC(=S)Nc1ccc(Cl)cc1)c1ccccc1` in this assay?
0.0

---

Entries and their growth
- System: NCI-H226 lung
- assay_protocol: NCI-60 one-dose screen, 48 h (100 = growth as untreated, 0 = no growth, -100 = all killed)
- condition: 10 µM unless noted
The panel holds about 83,000 compounds, 20% with a hit somewhere; the sample as a whole holds those more often.
Just the number please, in %, no unit attached.

Past entries and their recorded results:
CCC(CC(C)C)Nc1ccc(NC(CC)CC(C)C)cc1 (stereo not given): 76.5
COc1ccc(-c2nnc(SCC(=O)N3CCN(c4cc5c(cc4F)c(=O)c(C(=O)O)cn5C4CC4)CC3)o2)cc1OC: 103
O=C(COc1ccc(Cl)cc1Cl)N1N=C(c2ccc(Cl)cc2Cl)CC1(O)c1cc(F)c(Cl)cc1Cl (stereo not given): 149
COc1cc(C(=O)NNC(=O)c2ccccc2O)cc(OC)c1OC: 96.8

// next item, growth requested
Hi! What's the reported growth for `COc1ccc(/C=C/C(=O)/C=C(/C=C/c2ccc(OC)c(OC)c2OC)OB(F)F)c(OC)c1OC` on NCI-H226 lung?
75.6

---

- System: 786-0 renal
- assay_protocol: NCI-60 one-dose screen, 48 h (100 = growth as untreated, 0 = no growth, -100 = all killed)
- condition: 10 µM unless noted
This is part of a sample that, as a whole, favours compounds with a hit. Of some 83,000 tested, about 20% had one in any assay. The source made the active and inactive calls. How the source made its calls: active means growth percent below 10; inactive means the rest.
observable: growth

Past entries and their recorded results:
CC(C)Cn1cnc2c3ccccc3nc(NCn3nc(-c4cc(Cl)cc(Cl)c4Cl)oc3=S)c21: 75.5% (inactive)
CC(C)(C)NC(C1=CC(C)(C)c2ccccc2C1=O)c1ccccc1 (stereo not given): -94% (active)
COc1ccc(Cl)cc1NC(=O)c1cc2c([nH]1)-c1nc(N)sc1CCC2: 99.7% (inactive)

Find the recorded growth belonging to `C=CC(=O)NC(=O)Nc1ccccc1Cl` and report it.
74.3% (inactive)

Find the recorded growth belonging to `O=C(Nc1ccc(-n2cc(-c3ccncc3)c(-c3ccc(O)c(Cl)c3)n2)cc1)Nc1cccc(Cl)c1Cl` and report it.
58.3% (inactive)

Find the recorded growth belonging to `COc1cc(NS(=O)(=O)c2ccc(N)cc2)ncn1` and report it.
99.1% (inactive)

Find the recorded growth belonging to `O=C(CSc1nnc(-c2ccccc2)o1)Nc1ccc(C(=O)/C=C/c2ccccc2)cc1` and report it.
84.8% (inactive)

Find the recorded growth belonging to `COc1ccc(-c2nn(-c3ccc(NC(=O)Nc4ccc(Cl)c(Cl)c4)cc3)cc2-c2ccncc2)cc1Cl` and report it.
2.7% (active)

Find the recorded growth belonging to `CCOc1ccc(NC(=O)Nc2cc(C(C)C)ccc2C)cc1` and report it.
13% (inactive)

Find the recorded growth belonging to `Cc1cc(NC(=O)c2cccc(C(F)(F)F)c2)ccc1-n1ccc2c(NC(=O)c3ccccc3)nccc21` and report it.
102% (inactive)
